# Tested on: HL60/VINC
# EXPERIMENT_SUMMARY: Cytostatic activity in vitro, vincristine-induced resistant subline (MDR-1)
# Format: cell-based, human
# RECORDED_CONDITIONS: IC50(resistant cells)/IC50(sensitive cells), HL60/VINC vs HL60, 72 h
Please respond with reported RI resistance index HL60/VINC for every item in the list.
Lab note: jot the number down without any unit.

Exercise: Please tell me: RI resistance index HL60/VINC of CN(C)CCn1nc2c3c(cccc3c1=O)C(=O)c1ccccc1-2 , system HL60/VINC?
Solution: 2.3

Exercise: Please tell me: RI resistance index HL60/VINC of CN(C)CCn1nc2c3c(c(NCc4ccccc4)ccc3c1=O)C(=O)c1ccccc1-2 , system HL60/VINC?
Solution: 1.2

Exercise: Please tell me: RI resistance index HL60/VINC of CN(C)CCCn1nc2c3c(c(N)ccc3c1=O)C(=O)c1ccccc1-2 , system HL60/VINC?
Solution: 1.9

Exercise: Please tell me: RI resistance index HL60/VINC of CN(C)CCn1nc2c3c(c(NCCN)ccc3c1=O)C(=O)c1ccccc1-2 , system HL60/VINC?
Solution: 10.9

Exercise: Please tell me: RI resistance index HL60/VINC of CNc1ccc2c(=O)n(CCN(C)C)nc3c2c1C(=O)c1ccccc1-3 , system HL60/VINC?
Solution: 2.0

Exercise: Please tell me: RI resistance index HL60/VINC of CN(C)CCn1nc2c3c(c(NCC(=O)N(C)C)ccc3c1=O)C(=O)c1ccccc1-2 , system HL60/VINC?
Solution: 8.4

Exercise: Please tell me: RI resistance index HL60/VINC of CN(C)CCn1nc2c3c(c(NCCNCCO)ccc3c1=O)C(=O)c1ccccc1-2 , system HL60/VINC?
Solution: 14.7

Exercise: Please tell me: RI resistance index HL60/VINC of O=C1c2ccccc2-c2n[nH]c(=O)c3ccc(NCCNCc4ccccc4)c1c23 , system HL60/VINC?
Solution: 1.5

Exercise: Please tell me: RI resistance index HL60/VINC of CC(=O)Nc1ccc2c(=O)n(CCN(C)C)nc3c2c1C(=O)c1ccccc1-3 , system HL60/VINC?
Solution: 2.8
